- Assayed system: CDK2/cyclin A2 (Homo sapiens)
- Construct: purchased Carna Biosciences, Inc. QS S Assist CDK2/Cyclin A2_FP Kit
- Test description: Human CDK2/cyclin A2 inhibitory activity (QS S Assist CDK2/Cyclin A2_FP Kit, IMAP fluorescence polarization)
- Format: biochemical
- Measurement parameters: Human CDK2/cyclin A2 inhibitory activity; read-out: CDK2 Activity symbol
pIC50: −log10 of the molar value.
Readout kind: pIC50

O[C@H]1CC[C@H](Nc2nc(C(F)F)cc3cnc(Nc4ccc(CN5CCNCC5)cn4)nc23)CC1; ≤ 7.00

Ask: Entry CC(C)Nc1nc(C(F)F)cc2cnc(Nc3ccc(N4CCNC(=O)C4)cn3)nc12 needs its pIC50 filled in; supply it.
Result: 7.00 to 8.00

Ask: State, in one line, measured pIC50 of CC(C)Nc1nc(C(F)F)cc2cnc(Nc3ccc(N4CCNC(C)(C)C4)cn3)nc12
Result: 7.00 to 8.00

Ask: Name the recorded pIC50 of the compound listed here: CC(C)Nc1nc(C(F)F)cc2cnc(Nc3ccc(-c4ccc(O)cc4)cn3)nc12
Result: ≤ 7.00

Ask: For the compound CC(C)Nc1nc(C(F)F)cc2cnc(Nc3ccc(N4CCC(O)CC4)nn3)nc12 , give its measured pIC50 value.
Result: 7.00 to 8.00

Ask: Give the measured pIC50 for C[C@@H](O)c1nc(N[C@H]2CC[C@H](O)CC2)c2nc(Nc3ccc(N4CCNCC4)nn3)ncc2c1Cl
Result: ≤ 7.00

Ask: Report pIC50 for CO[C@H](C)c1cc2cnc(Nc3ccc(C4CCCNC4)cn3)nc2c(NC(C)C)n1 (stereo partly shown)
Result: ≤ 7.00

Ask: Give the measured pIC50 for CC(C)CN1CCN(c2ccc(Nc3ncc4cc([C@@H](C)O)nc(NC(C)C)c4n3)nn2)CC1
Result: ≤ 7.00

Ask: Input C[C@@H](O)c1cc2cnc(Nc3ccc(CN4CCNCC4)cn3)nc2c(NC2CCCC2C(=O)O)n1 (stereo partly shown) , output reported pIC50.
Result: ≤ 7.00

Ask: # return recorded pIC50 for entry CC(C)Nc1nc([C@@H](C)O)cc2cnc(Nc3ccc(SCCN(C)C)nn3)nc12
Result: ≤ 7.00

Where do these numbers come from? They come from patent US10124004B2.
